assay: log P by HPLC on reversed-phase columns (C 18), EEC Directive 79/831 Annex V.A8; assay type: physicochemical; conditions: reversed-phase C18 HPLC column, pH 2.3, pH 2.3, given in synthesis examples; read-out: log P (pH2.3)
observed property: chromatographic logP

In [3]: df
Out[3]:
                                smiles_text  assay_value
0  CCN(C)C=Nc1cc(C)c(Oc2nc(Cc3cccc(Cl)c3)ns2)cc1C         2.31
1    Cc1cc(Oc2nc(Cc3cccc(Cl)c3)ns2)c(C)cc1N         3.68
2  Cc1ccc(S(=O)(=O)c2nc(C3(c4ccc(Cl)cc4)CC3)ns2)cc1         4.97
3  CCN(C)C=Nc1cc(C)c(Oc2nc(C3(c4ccc(Cl)cc4)CC3)ns2)cc1C         2.28
4  Cc1cc(Oc2nc(C3(c4ccc(Cl)cc4)CC3)ns2)c(C)cc1N         4.44

* * *

test: log P by HPLC on reversed-phase columns (C 18), EEC Directive 79/831 Annex V.A8; type: physicochemical; details: [a] HPLC, acid region pH 2.3, 0.1% aqueous phosphoric acid and acetonitrile
Here, each record is paired with measured log p data.
observed property: log p

                                 smiles_text  assay_value
 0  Cc1cc(Oc2nc(Cc3ccc(-c4ccccc4)cc3)ns2)c(C)cc1N=CN1CCCCC1     2.45^[a]
 1  CCN(C)C=Nc1cc(C(C)C)c(Oc2nc(Cc3ccc(F)cc3)ns2)cc1C     2.41^[a]
 2  Cc1cc(Oc2nc(Cc3c(F)cccc3Cl)ns2)c(C)cc1N=CN1CCCCC1     2.12^[a]
 3  Cc1cc(Oc2nc(Cc3ccc(SC(F)(F)F)cc3)ns2)c(C)cc1N=CN1CCCCC1     2.67^[a]
 4  CCN(C)C=Nc1cc(C)c(Oc2nc(Cc3ccc(OC(F)(F)F)cc3)ns2)cc1C     2.21^[a]
 5  Cc1cc(Oc2nc(Cc3cccc(Cl)c3Cl)ns2)c(C)cc1N=CN1CCCCC1     2.38^[a]
 6  CCN(C)C=Nc1cc(C)c(Oc2nc(Cc3cccc(F)c3)ns2)cc1C     1.87^[a]
 7  CCN(C)C=Nc1cc(C(C)C)c(Oc2nc(Cc3ccc(Br)cc3)ns2)cc1C     2.75^[a]
 8  CCN(C)C=Nc1cc(C)c(Oc2nc(Cc3cccc(Cl)c3Cl)ns2)cc1C     2.21^[a]
 9  CCN(C)C=Nc1cc(C(C)C)c(Oc2nc(Cc3ccc(Cl)cc3Cl)ns2)cc1C     2.93^[a]
10  Cc1ccc(Cc2nsc(Oc3cc(C)c(N=CN4CCCCC4)cc3C)n2)cc1     2.49^[a]
11  CCN(C)C=Nc1cc(C)c(Oc2nc(Cc3ccc(OC)cc3)ns2)cc1C     2.98^[a]
12  Cc1cc(Oc2nc(Cc3ccc(OC(F)(F)F)cc3)ns2)c(C)cc1N=CN1CCCCC1     2.71^[a]
13  COc1cccc(Cc2nsc(Oc3cc(C)c(N=CN4CCCCC4)cc3C)n2)c1     2.17^[a]
14  CCN(C)C=Nc1cc(C)c(Oc2nc(Cc3c(F)cc(F)cc3F)ns2)cc1C      2.1^[a]
15  CCOc1ccc(Cc2nsc(Oc3cc(C)c(N=CN(C)CC)cc3C)n2)cc1     2.06^[a]
16  Cc1cc(Oc2nc(Cc3ccc(F)cc3F)ns2)c(C)cc1N=CN1CCCCC1     2.02^[a]
17  CCN(C)C=Nc1cc(C)c(Oc2nc(Cc3cc(Br)c(F)cc3C)ns2)cc1C     2.57^[a]
